Taken from patent US20160355530A1.

test system: HCV 1a-H77 subgenomic replicon; experiment: microbe, parasite or virus in culture; format: cell-based, HCV genotype 1a; conditions: Hepatitis C virus, stable replicon, 5% FBS, absence of human plasma; read-out: Stable Replicon 1a H77 5% FBS EC50
Criterion: EC50 strictly less than 20 nM. Met: Condition met. Not met: Condition not met.

compound: CS(=O)(=O)N(CCCCO)c1cc2oc(-c3ccc(F)cc3)c(-c3noc(=O)[nH]3)c2cc1C1CC1 [Example 185]
measured-on: HCV 1a-H77 subgenomic replicon
category-label: Condition not met
//
compound: COc1ccc(CN(c2cc3oc(-c4ccc(F)cc4)c(-c4ncc[nH]4)c3cc2OC(C)C)S(C)(=O)=O)cc1 [Example 170]
measured-on: HCV 1a-H77 subgenomic replicon
category-label: Condition not met
//
compound: Cc1cnc(-c2c(-c3ccc(F)cc3)oc3cc(N(CCC(C)C)S(C)(=O)=O)c(C4CC4)cc23)[nH]1 [Example 172]
measured-on: HCV 1a-H77 subgenomic replicon
category-label: Condition not met
//
compound: CS(=O)(=O)N(Cc1ccccc1)c1ccc2c(-c3ncc[nH]3)c(-c3ccccc3)oc2c1 [Example 21]
measured-on: HCV 1a-H77 subgenomic replicon
category-label: Condition not met
//
compound: CCCC/C=C/c1ccc(-c2oc3cc(N(CCCCS(C)(=O)=O)S(C)(=O)=O)c(C4CC4)cc3c2-c2ncc[nH]2)cc1 [Example 168]
measured-on: HCV 1a-H77 subgenomic replicon
category-label: Condition met
//
compound: CC(C)CCN(c1cc2oc(-c3ccc(F)cc3)c(C3=NOC(C)N3)c2cc1C1CC1)S(C)(=O)=O (centres unmarked) [Example 14]
measured-on: HCV 1a-H77 subgenomic replicon
category-label: Condition not met
//
compound: CS(=O)(=O)CCCN(c1cc2oc(-c3ccc(F)cc3)c(-c3ncc[nH]3)c2cc1C1CC1)S(C)(=O)=O [Example 101]
measured-on: HCV 1a-H77 subgenomic replicon
category-label: Condition met
//
compound: CC(C)(O)C(O)CCN(c1cc2oc(-c3ccc(F)cc3)c(C3=NOCN3)c2cc1C1CC1)S(C)(=O)=O (centres unmarked) [Example 146]
measured-on: HCV 1a-H77 subgenomic replicon
category-label: Condition met
//
compound: CS(=O)(=O)N(CC1CC1(F)F)c1cc2oc(-c3ccc(F)cc3)c(-c3ncc[nH]3)c2cc1C1CC1 (centres unmarked) [Example 55]
measured-on: HCV 1a-H77 subgenomic replicon
category-label: Condition not met
//
compound: CS(=O)(=O)N(CCCN)c1cc2oc(-c3ccc(F)cc3)c(-c3ncc[nH]3)c2cc1C1CC1 [Example 112]
measured-on: HCV 1a-H77 subgenomic replicon
category-label: Condition not met
//
compound: CS(=O)(=O)N(CCC(O)CO)c1cc2oc(-c3ccc(F)cc3)c(-c3ncc[nH]3)c2cc1C1CC1 (centres unmarked) [Example 110]
measured-on: HCV 1a-H77 subgenomic replicon
category-label: Condition met
//
compound: CS(=O)(=O)N(CCCN1CCOCC1)c1cc2oc(-c3ccc(F)cc3)c(C3=NOCCN3)c2cc1C1CC1 [Example 126]
measured-on: HCV 1a-H77 subgenomic replicon
category-label: Condition not met
//
compound: CS(=O)(=O)N(Cc1cnc(-c2ccc3[nH]ccc3c2)s1)c1cc2oc(-c3ccc(F)cc3)c(-c3ncc[nH]3)c2cc1C1CC1 [Example 31]
measured-on: HCV 1a-H77 subgenomic replicon
category-label: Condition not met
//
compound: CS(=O)(=O)N(CCCCC(=O)O)c1cc2oc(-c3ccc(F)cc3)c(-c3ncc[nH]3)c2cc1C1CC1 [Example 92]
measured-on: HCV 1a-H77 subgenomic replicon
category-label: Condition not met
//
compound: CS(=O)(=O)N(CCCS(=O)(=O)N1CCOCC1)c1cc2oc(-c3ccc(F)cc3)c(-c3ncc[nH]3)c2cc1C1CC1 [Example 79]
measured-on: HCV 1a-H77 subgenomic replicon
category-label: Condition met
//
compound: CS(=O)(=O)N(CCCc1noc(=S)[nH]1)c1cc2oc(-c3ccc(F)cc3)c(C3=NOCCN3)c2cc1C1CC1 [Example 183]
measured-on: HCV 1a-H77 subgenomic replicon
category-label: Condition not met
//
compound: CS(=O)(=O)N(CCC1CCCCC1)c1cc2oc(-c3ccc(F)cc3)c(-c3ncc[nH]3)c2cc1C1CC1 [Example 72]
measured-on: HCV 1a-H77 subgenomic replicon
category-label: Condition not met
//
compound: CC(C)CCCN(c1cc2oc(-c3ccc(F)cc3)c(-c3ncc[nH]3)c2cc1C1CC1)S(C)(=O)=O [Example 40]
measured-on: HCV 1a-H77 subgenomic replicon
category-label: Condition not met
//
compound: CS(=O)(=O)CCCCN(c1cc2oc(-c3ccc(F)cc3)c(C3=NOCCN3)c2cc1C1CC1)S(C)(=O)=O [Example 122]
measured-on: HCV 1a-H77 subgenomic replicon
category-label: Condition met
//
compound: CS(=O)(=O)N(CCCCC(N)=O)c1cc2oc(-c3ccc(F)cc3)c(-c3ncc[nH]3)c2cc1C1CC1 [Example 91]
measured-on: HCV 1a-H77 subgenomic replicon
category-label: Condition met
//
compound: CS(=O)(=O)N(CCCCF)c1cc2oc(-c3ccc(F)cc3)c(-c3ncc[nH]3)c2cc1C1CC1 [Example 83]
measured-on: HCV 1a-H77 subgenomic replicon
category-label: Condition met
//
compound: CS(=O)(=O)N(Cc1cnc(-c2ccc3nc[nH]c3c2)s1)c1ccc2c(-c3ncc[nH]3)c(-c3ccccc3)oc2c1 [Example 3]
measured-on: HCV 1a-H77 subgenomic replicon
category-label: Condition not met
//
compound: CS(=O)(=O)N(CCCc1nnn[nH]1)c1cc2oc(-c3ccc(F)cc3)c(C3=NOCCN3)c2cc1C1CC1 [Example 180]
measured-on: HCV 1a-H77 subgenomic replicon
category-label: Condition not met
